- Target or test system: T1, IL-2R on human primary T cells (human, UniProt P01589 22-272; P14784 27-551; P31785 23-369)
- T1 sequence (looked up) 1: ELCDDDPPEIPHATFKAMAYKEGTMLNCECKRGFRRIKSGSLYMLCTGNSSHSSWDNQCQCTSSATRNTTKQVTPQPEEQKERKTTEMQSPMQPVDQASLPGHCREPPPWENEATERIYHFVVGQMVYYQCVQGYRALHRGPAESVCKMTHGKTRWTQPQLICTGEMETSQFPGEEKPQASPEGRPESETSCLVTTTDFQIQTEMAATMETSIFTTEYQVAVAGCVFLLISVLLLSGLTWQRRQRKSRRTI
- T1 sequence (looked up) 2: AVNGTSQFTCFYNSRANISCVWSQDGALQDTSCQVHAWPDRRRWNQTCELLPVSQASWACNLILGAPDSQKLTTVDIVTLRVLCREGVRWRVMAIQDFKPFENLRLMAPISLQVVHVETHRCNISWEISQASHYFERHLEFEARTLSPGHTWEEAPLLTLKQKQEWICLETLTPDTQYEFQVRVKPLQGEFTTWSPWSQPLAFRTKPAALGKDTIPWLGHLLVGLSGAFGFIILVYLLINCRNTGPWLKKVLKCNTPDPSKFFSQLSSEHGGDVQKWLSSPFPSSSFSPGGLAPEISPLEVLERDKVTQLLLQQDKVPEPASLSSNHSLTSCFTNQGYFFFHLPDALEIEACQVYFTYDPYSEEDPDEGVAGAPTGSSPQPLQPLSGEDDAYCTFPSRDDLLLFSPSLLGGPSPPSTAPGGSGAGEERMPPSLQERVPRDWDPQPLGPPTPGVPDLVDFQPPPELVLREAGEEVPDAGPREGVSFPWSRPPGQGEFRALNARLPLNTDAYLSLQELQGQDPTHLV
- T1 sequence (looked up) 3: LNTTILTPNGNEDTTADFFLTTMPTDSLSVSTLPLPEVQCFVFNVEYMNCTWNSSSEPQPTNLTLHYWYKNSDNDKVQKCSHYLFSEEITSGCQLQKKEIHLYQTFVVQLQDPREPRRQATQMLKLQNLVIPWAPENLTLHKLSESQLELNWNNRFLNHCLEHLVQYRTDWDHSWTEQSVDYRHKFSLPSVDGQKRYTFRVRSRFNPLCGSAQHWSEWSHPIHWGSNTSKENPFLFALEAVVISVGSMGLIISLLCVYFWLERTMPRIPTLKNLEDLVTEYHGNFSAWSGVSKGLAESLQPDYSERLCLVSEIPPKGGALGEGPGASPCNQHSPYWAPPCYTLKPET
- Method summary: cell-based or functional assay
CD4 conv EC50 (nM), STAT5 phosphorylation vs 4000 nM: less than gives Satisfied; not less than gives Not satisfied.

INPUT: Confirm or reject: CD4 conv EC50 (nM), STAT5 phosphorylation of SEQ ID NO 37 (ligand) APTSSSTKKTQLQLEHLLLDLQMILNGINNHKNPKLTRMLTFKFYMPKKATELKHLQCLEEELKPLEEALRLAPSKNFHLRPRDLISDINVIVLELKGSETTFMCEYADETATIVEFLNRWITFSQSIISTLT lies strictly below 4000 nM
OUTPUT: Not satisfied

INPUT: Confirm or reject: CD4 conv EC50 (nM), STAT5 phosphorylation of SEQ ID NO 30 (ligand) APTSSSTKKTQLQLEHLLLDLQMILNGINNHKNPKLTRMLTFKFYMPKKATELKHLQCLEEELKPLEEALNLAPSKNFHLRPRDLISDINVIVLELKGSETTFMCEYADETATIVEFLNRWITFSQSIISTLT lies strictly below 4000 nM
OUTPUT: Not satisfied

INPUT: Confirm or reject: CD4 conv EC50 (nM), STAT5 phosphorylation of SEQ ID NO 35 (ligand) APTSSSTKKTQLQLEHLLLDLQMILNGINNHKNPKLTRMLTFKFYMPKKATELKHLQCLEEELKPLEEVLNLAPSKNFHLRPRDLISDINVIVLELKGSETTFMCEYADETATIVEFLNRWITFSQSIISTLT lies strictly below 4000 nM
OUTPUT: Not satisfied

INPUT: Confirm or reject: CD4 conv EC50 (nM), STAT5 phosphorylation of SEQ ID NO 14 (ligand) APTSSSTKKTQLQLEHLLLDLQMILNGINNHKNPRLTRMLTFKFYMPKKATELKHLQCLEEELKPLEEVLNLAPSKNFHLRPRDLISNINVIVLELKGSETTFMCEYADETATIVEFLNRWITFSQSIISTLT lies strictly below 4000 nM
OUTPUT: Satisfied

INPUT: Confirm or reject: CD4 conv EC50 (nM), STAT5 phosphorylation of SEQ ID NO 34 (ligand) APTSSSTKKTQLQLEHLLLDLQMILNGINNHKNPKLTRMLTFKFYMPKKATELKHLQCLEEELKPLEEVLNLAQSKNFHLRPRDLISDINVIVLELKGSETTFMCEYADETATIVEFLNRWITFSQSIISTLT lies strictly below 4000 nM
OUTPUT: Satisfied

INPUT: Confirm or reject: CD4 conv EC50 (nM), STAT5 phosphorylation of SEQ ID NO 13 (ligand) APTSSSTKKTQLQLEHLLLDLQMILNGINNHKNPRLTRMLTFKFYMPKKATELKHLQCLEEELKPLEEALRLAPSKNFHLRPRDLISDINVIVLELKGSETTFMCEYADETATIVEFLNRWITFSQSIISTLT lies strictly below 4000 nM
OUTPUT: Not satisfied

INPUT: Confirm or reject: CD4 conv EC50 (nM), STAT5 phosphorylation of SEQ ID NO 20 (ligand) APTSSSTKKTQLQLEHLLLDLQMILNGINNHKNPKLTRMLTFKFYMPKKATELKHLQCLEEELKPLEEALRLAPSKNFHLRPRDLISNINVIVLELKGSETTFMCEYADETATIVEFLNRWITFSQSIISTLT lies strictly below 4000 nM
OUTPUT: Satisfied

INPUT: Confirm or reject: CD4 conv EC50 (nM), STAT5 phosphorylation of SEQ ID NO 26 (ligand) APTSSSTKKTQLQLEHLLLDLQMILNGINNHKNPRLTRMLTFKFYMPKKATELKHLQCLEEELKPLEEVLRLAPSKNFHLRPRDLISDINVIVLELKGSETTFMCEYADETATIVEFLNRWITFSQSIISTLT lies strictly below 4000 nM
OUTPUT: Satisfied

INPUT: Confirm or reject: CD4 conv EC50 (nM), STAT5 phosphorylation of SEQ ID NO 9 (ligand) APTSSSTKKTQLQLEHLLLDLQMILNGINNHKNPRLTRMLTFKFYMPKKATELKHLQCLEEELKPLEEALRLAPSKNFHLRPRDLISNINVIVLELKGSETTFMCEYADETATIVEFLNRWITFSQSIISTLT lies strictly below 4000 nM
OUTPUT: Satisfied

INPUT: Confirm or reject: CD4 conv EC50 (nM), STAT5 phosphorylation of SEQ ID NO 32 (ligand) APTSSSTKKTQLQLEHLLLDLQMILNGINNYKNPKLTRMLTFKFYMPKKATELKHLQCLEEELKPLEEALNLAQSKNFHLRPRDLISDINVIVLELKGSETTFMCEYADETATIVEFLNRWITFSQSIISTLT lies strictly below 4000 nM
OUTPUT: Not satisfied
